Target: Tyrosine-protein kinase SYK (Homo sapiens) (UniProt P43405)
Assay: Inhibition of human recombinant SYK by radiometric kinase assay
reported_metric: IC50
Dear colleague, please send the value followed by its unit.

Consider the compound shown here: `CN1CCN(c2ccc(Nc3ncc4nc(Nc5ccccc5)n(C5CCCC5)c4n3)cc2)CC1` What is its recorded IC50?
720 nM

Where do these numbers come from? They come from BindingDB's records for doi:10.1021/jm301365e.
